# Tested on: 953936-095-R-J2-PDC spheroids with HUVEC/MSC, viability
# ASSAY INFO: Anticancer human tumor 953936-095-R-J2-PDC patient-derived cervical squamous cell carcinoma cell line growth inhibition [PI3K]
# PROTOCOL CONDITIONS: second compound 0.0316 µM; first compound 10 µM; active compounds read low
Recorded measurements of viability, T/C, one per entry
OUTCOME MEASURE: viability, T/C (%)

compound="C=CC(=O)N1CCN(c2nc(=O)n(-c3c(C)ccnc3C(C)C)c3nc(-c4c(O)cccc4F)c(F)cc23)C(C)C1 (stereo not drawn) + CC(Nc1ccc2c(c1)OCCn1cc(N3C(=O)OCC3C(F)F)nc1-2)C(N)=O" reported_value=94.1
compound="CC(C)NCC(C(=O)N1CCN(c2ncnc3c2C(C)CC3O)CC1)c1ccc(Cl)cc1 (stereo not drawn) + CC(Nc1ccc2c(c1)OCCn1cc(N3C(=O)OCC3C(F)F)nc1-2)C(N)=O" reported_value=11.4
compound="Cn1nccc1Nc1nccc(-c2ccn(C(CO)c3ccc(Cl)c(F)c3)c(=O)c2)n1 (stereo not drawn) + Cc1nc(NC(=O)N2CCCC2C(N)=O)sc1-c1ccnc(C(C)(C)C(F)(F)F)c1" reported_value=67.1

---

# Tested on: 953936-095-R-J2-PDC spheroids with HUVEC/MSC, viability
# ASSAY INFO: Anticancer human tumor 953936-095-R-J2-PDC cell line growth inhibition [PI3K];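 further: spheroids exposed to compounds for seven days before read-out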
# PROTOCOL CONDITIONS: second compound 3.16 µM; first compound 0.0316 µM; active compounds read low
# Text: Combinatorial screen of targeted agents with the PI3K inhibitors inavolisib, alpelisib, duvelisib, and copanlisib in multi-cell type tumor spheroids A high-throughput screen of multi-cell type tumor spheroids was designed to identify active combinations of targeted small molecules and PI3K pathway inhibitors. […] Compounds. […] If the clinical Cmax for an agent had not been determined, the highest concentration tested was 10 microM. […]
OUTCOME MEASURE: viability, T/C (%)

compound="CC1(C)CCC(Nc2ncc(C(F)(F)F)c(-c3c[nH]c4c(P(C)(C)=O)c(C#N)ccc34)n2)CN1 (centres undefined) + CC(Nc1ncnc2nc[nH]c12)c1cc2cccc(Cl)c2c(=O)n1-c1ccccc1" reported_value=45.9
compound="C=CC(=O)N1CCN(c2nc(=O)n(-c3c(C)ccnc3C(C)C)c3nc(-c4c(O)cccc4F)c(F)cc23)C(C)C1 (centres undefined) + CC(Nc1ncnc2nc[nH]c12)c1cc2cccc(Cl)c2c(=O)n1-c1ccccc1" reported_value=85
compound="CNC(=O)c1ccc(N2C(=S)N(c3ccc(C#N)c(C(F)(F)F)c3)C(=O)C2(C)C)cc1F + Cc1nc(NC(=O)N2CCCC2C(N)=O)sc1-c1ccnc(C(C)(C)C(F)(F)F)c1" reported_value=26.6
compound="CC1(C)CCC(Nc2ncc(C(F)(F)F)c(-c3c[nH]c4c(P(C)(C)=O)c(C#N)ccc34)n2)CN1 (centres undefined) + Cc1nc(NC(=O)N2CCCC2C(N)=O)sc1-c1ccnc(C(C)(C)C(F)(F)F)c1" reported_value=18.2

---

# Test system: 953936-095-R-J2-PDC spheroids with HUVEC/MSC, viability
# ASSAY INFO: Anticancer human tumor 953936-095-R-J2-PDC cell line growth inhibition [PI3K]; active = viability on the fitted dose curve at most 10% of control; inactive = the rest;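 further: spheroids exposed to compounds for seven days before read-out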
# PROTOCOL CONDITIONS: second compound 1 µM; first compound 0.00949 µM
Labels: true for active, false for inactive

molecule="Cn1cnc2c(F)c(Nc3ccc(Br)cc3Cl)c(C(=O)NOCCO)cc21 + CC(Nc1ccc2c(c1)OCCn1cc(N3C(=O)OCC3C(F)F)nc1-2)C(N)=O" label_class=false
molecule="Cn1cnc2c(F)c(Nc3ccc(Br)cc3Cl)c(C(=O)NOCCO)cc21 + Cc1nc(NC(=O)N2CCCC2C(N)=O)sc1-c1ccnc(C(C)(C)C(F)(F)F)c1" label_class=false
molecule="Cn1cnc2c(F)c(Nc3ccc(Br)cc3Cl)c(C(=O)NOCCO)cc21 + CC(Nc1ncnc2nc[nH]c12)c1cc2cccc(Cl)c2c(=O)n1-c1ccccc1" label_class=false
molecule="Cn1cnc2c(F)c(Nc3ccc(Br)cc3Cl)c(C(=O)NOCCO)cc21 + COc1c(OCCCN2CCOCC2)ccc2c3n(c(=NC(=O)c4cnc(N)nc4)nc12)CCN3" label_class=true
